Hello, the source for this data is the SangsterLogP compilation, in case you need it.

- assayMethodText: method code SF-HPLC, from DOI: 10.1080/01483919108049310
- assaySetup: pH 8.5
Item-by-item account of logD
attributeMeasured: logD

Cc1nn(-c2ccccc2)c(Nc2ccc(Cl)cn2)c1[N+](=O)[O-] | 3.74
Cc1nn(-c2ccccc2)c(Nc2ccc([N+](=O)[O-])cc2)c1[N+](=O)[O-] | 2.78
Cc1nn(-c2ccccc2)c(NN=Cc2ccc3c(c2[N+](=O)[O-])OCO3)c1[N+](=O)[O-] | 3.39
Cc1ccc(Nc2c([N+](=O)[O-])c(C)nn2-c2ccccc2)cc1 | 3.43
Cc1nn(-c2ccccc2)c(Nc2ccc(C(F)(F)F)cc2)c1[N+](=O)[O-] | 3.89
Cc1ccccc1Nc1c([N+](=O)[O-])c(C)nn1-c1ccccc1 | 3.8
Cc1cccc(Nc2c([N+](=O)[O-])c(C)nn2-c2ccccc2)c1 | 3.25
Cc1nn(-c2ccccc2)c(Nc2ccccc2)c1[N+](=O)[O-] | 2.98
